- test-target: NPFF-R1 (Homo sapiens, UniProt Q9GZQ6)
- Construct: host or cells: CHO-K1 (isolated membranes)
- Sequence (Q9GZQ6 whole entry): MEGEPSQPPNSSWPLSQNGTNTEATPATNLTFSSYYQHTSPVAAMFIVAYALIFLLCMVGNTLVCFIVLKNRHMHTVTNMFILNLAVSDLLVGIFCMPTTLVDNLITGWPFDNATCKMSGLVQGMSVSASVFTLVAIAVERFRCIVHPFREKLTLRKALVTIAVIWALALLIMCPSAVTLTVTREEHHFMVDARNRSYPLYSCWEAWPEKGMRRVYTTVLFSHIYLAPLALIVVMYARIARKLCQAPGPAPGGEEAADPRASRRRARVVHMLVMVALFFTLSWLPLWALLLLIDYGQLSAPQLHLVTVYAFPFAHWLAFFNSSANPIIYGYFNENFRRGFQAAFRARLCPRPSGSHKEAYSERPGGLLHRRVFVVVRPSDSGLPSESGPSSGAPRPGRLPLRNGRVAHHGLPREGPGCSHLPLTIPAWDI
- measurement-notes: Competitive and saturation binding, [^125I]-1DMe, membranes of CHO-K1 cells with NPFF-R1
No end group written: not given here.
parameter-measured: Ki (nM)
Kindly provide the numeric value in nM only, without the unit symbol.

Returns the measured Ki for the input substance. Input: SRAHQHSMETRTPDINPAWYTGRGIRPVGRF-NH2 [PrRP31, prolactin-releasing peptide 31, reference compound]
40.4

---

- test-target: DOR (Homo sapiens)
- Construct: host or cells: U2OS
- Sequence (P41143 whole entry): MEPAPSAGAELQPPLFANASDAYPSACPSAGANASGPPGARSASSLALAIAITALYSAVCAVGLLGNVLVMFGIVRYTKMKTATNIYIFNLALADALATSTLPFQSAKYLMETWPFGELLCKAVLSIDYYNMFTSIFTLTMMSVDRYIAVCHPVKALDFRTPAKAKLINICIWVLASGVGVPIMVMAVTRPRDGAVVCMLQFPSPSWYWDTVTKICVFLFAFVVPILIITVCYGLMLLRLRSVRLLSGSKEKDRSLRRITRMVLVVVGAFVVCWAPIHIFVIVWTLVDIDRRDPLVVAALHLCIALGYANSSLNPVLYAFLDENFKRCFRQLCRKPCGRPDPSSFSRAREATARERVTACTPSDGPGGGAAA
- measurement-notes: Beta-lactamase reporter gene assay (FRET), DOR
- Assay type: cell-based
- cond: β-lactamase assay, agonist mode, U2OS cells; mean ± SEM, 2–3 independent experiments in duplicates
No end group written: not given here.
parameter-measured: EC50

Returns the measured EC50 for the input substance. Input: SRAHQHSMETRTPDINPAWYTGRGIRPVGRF-NH2 [PrRP31, prolactin-releasing peptide 31, reference compound]
> 10 µM

Source: paper PMC8396344
